tested on: Mus musculus; experiment: Antithrombotic activity after oral administration in mouse was measured as protection vs control percent; format: functional
ASSAY_READOUT: Activity

CC(=O)Nc1ccc2c(c1)CCC1CC(=O)NN=C21 (stereo unspecified)	100
Nc1ccc2c(c1)CCCC1CC(=O)NN=C21 (stereo unspecified)	45
CC(=O)Nc1ccc2c(c1)CCCC1CC(=O)NN=C21 (stereo unspecified)	46
CC(=O)Nc1ccc2c(c1)CC1CC(=O)NN=C21 (stereo unspecified)	100
Nc1ccc2c(c1)CC1CC(=O)NN=C21 (stereo unspecified)	87
Nc1ccc2c(c1)CCC1CC(=O)NN=C21 (stereo unspecified)	73
